Catalogue of % apoptotic cells at given concentration (nM) readings, one per entry.
- System: Jurkat human T lymphocyte cell line
- ASSAY SUMMARY: Apoptosis assay (Annexin V) of compounds incubated with human serum
- MEASUREMENT PARAMETERS: Table 5; human serum (48 hrs); 1 nM
PARAMETER MEASURED: % apoptotic cells at given concentration (nM) (%)

MOLECULE	NUMBER
CCNC(=O)O[C@@H]1[C@@]2(C(C)C)O[C@H]2[C@@H]2O[C@]23[C@]12O[C@H]2C[C@H]1C2=C(CC[C@@]13C)C(=O)OC2 [PG666, Triptolide 14-Ethyl Carbamate]	9.8
CC(C)[C@]12O[C@H]1[C@@H]1O[C@]13[C@]1(O[C@H]1C[C@H]1C4=C(CC[C@@]13C)C(=O)OC4)[C@@H]2O [PG490, Triptolide]	8.8
CC(C)[C@]12O[C@H]1[C@@H]1O[C@]13[C@]1(O[C@H]1C[C@H]1C4=C(CC[C@@]13C)C(=O)OC4)[C@@H]2OC(=O)NCCN(C)C	9.2
CC(C)[C@]12O[C@H]1[C@@H]1O[C@]13[C@]1(O[C@H]1C[C@H]1C4=C(CC[C@@]13C)C(=O)OC4)[C@@H]2OC(=O)CCC(=O)O [PG490-88, triptolide-14-succinate, reference compound]	8.6
